What pIC50 was measured for each of the following?
# System: CYP11A1 (Homo sapiens, UniProt P05108)
# Construct: host or cells: NCI-H295R
# Protocol summary: NCI-H295R cellular pregnenolone biosynthesis inhibition assay (ELISA method)
# Type: cell-based
# Measurement context: NCI-H295R cells, 3 days incubation, pregnenolone in cell supernatant by ELISA; read-out: IC50
pIC50: −log10 of the molar value.

COc1cc(CN2Cc3ccccc3C2)ccc1C#CC1=CCS(=O)(=O)CC1 [compound 97]    < 6.52
CS(=O)(=O)N1CCC(CSc2ccc(CN3Cc4ccccc4C3)cc2F)CC1 [compound 43]    6.52 to 7.00
Cc1cc(CN2Cc3ccccc3C2)cc(F)c1OCC1CCN(S(C)(=O)=O)CC1 [compound 35]    6.52 to 7.00
COc1cc(CN2Cc3ccccc3C2)ccc1CCC1CCN(S(=O)(=O)c2ccc(C)cc2)CC1 [compound 75]    > 7.00
COc1cc(CN2Cc3ccccc3C2)c(F)cc1OCC1CCN(S(C)(=O)=O)CC1 [compound 22]    > 7.00

Please report pIC50 for every entry that follows.
1. Cn1c(CN2Cc3ccncc3C2)c(F)cc(CCC2CCN(S(C)(=O)=O)CC2)c1=O [compound 99]
2. CS(=O)(=O)N1CCC(CCc2ccc(CN3Cc4ccccc4C3)cc2C#N)CC1 [compound 54]
3. Cn1c(CN2Cc3ccccc3C2)c(F)cc(C(=O)CC2CCN(C(=O)OC(C)(C)C)CC2)c1=O [compound 125]

Response:
< 6.52
> 7.00
> 7.00

* * *

What Cmax was measured for each of the following?
# Protocol summary: PK study, intravenous and oral administration, plasma LC-MS/MS
# Format: in vivo
# Measurement context: both sexes, 5 mg/kg, oral administration of 5 mpk, species not given (ICR mice or SD Rat)
# Method: ICR mice (male/female, total 6 animals) were assigned to two groups for oral administration and intravenous administration, respectively, with 3 mice in each group. Before administration, the animals were fasted for 10-14 hours, with water available ad lib. SD Rat (male/female, total 6 animals) were assigned to two groups for oral administration and intravenous administration, respectively, with 3 mice in each group. […]

CS(=O)(=O)N1CCC(COc2coc(CN3Cc4ccccc4C3)cc2=O)CC1 [ODM-208, reference compound]    807 ng/mL
Cn1c(CN2Cc3ccccc3C2)c(F)cc(C=CC2CCN(C(=O)CC#N)CC2)c1=O    > 1000 ng/mL

Prompt: Given the entry `Cn1c(CN2Cc3ccccc3C2)c(F)cc(C=CC2CCN(S(C)(=O)=O)CC2)c1=O` , report its measured Cmax.
Response: > 1000 ng/mL

* * *

# System: CYP11A1 (Homo sapiens, UniProt P05108)
# Construct: host or cells: NCI-H295R
# Sequence (P05108 40-521): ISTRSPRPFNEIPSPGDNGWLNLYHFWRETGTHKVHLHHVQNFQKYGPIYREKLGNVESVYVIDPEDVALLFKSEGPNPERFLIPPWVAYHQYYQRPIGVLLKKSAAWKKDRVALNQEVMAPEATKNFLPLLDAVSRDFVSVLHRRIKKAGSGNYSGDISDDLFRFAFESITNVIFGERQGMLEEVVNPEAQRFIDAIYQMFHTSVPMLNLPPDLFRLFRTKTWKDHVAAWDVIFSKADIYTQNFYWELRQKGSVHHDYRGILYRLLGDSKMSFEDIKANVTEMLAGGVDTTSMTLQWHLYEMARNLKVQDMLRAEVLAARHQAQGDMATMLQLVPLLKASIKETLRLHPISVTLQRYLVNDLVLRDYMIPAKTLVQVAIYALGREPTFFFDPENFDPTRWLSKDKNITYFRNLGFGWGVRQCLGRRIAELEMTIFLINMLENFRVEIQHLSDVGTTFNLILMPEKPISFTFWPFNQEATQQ
# Protocol summary: NCI-H295R cellular pregnenolone biosynthesis inhibition assay (ELISA method)
# Format: cell-based
# Measurement context: NCI-H295R cells, 3 days incubation, pregnenolone in cell supernatant by ELISA; read-out: IC50
pIC50: −log10 of the molar value.
What pIC50 was measured for each of the following?

The following compounds have reported results that may help.
CS(=O)(=O)N1CCC(CCc2cnc(CN3Cc4ccccc4C3)s2)CC1    < 6.52
CS(=O)(=O)N1CCC(COc2ccc(CN3Cc4ccccc4C3)cn2)CC1    < 6.52
[2H]C([2H])(c1c(F)cc(CCC2CCN(S(C)(=O)=O)CC2)c(=O)n1C)N1Cc2ccccc2C1    > 7.00

Please report pIC50 for every entry that follows.
1. CCS(=O)(=O)N1CCC(C=Cc2cc(F)c(CN3Cc4ccccc4C3)n(C)c2=O)CC1
2. CC(c1c(F)cc(CCC2CCN(S(C)(=O)=O)CC2)c(=O)n1C)N1Cc2ccccc2C1 (centres unmarked)
3. Cn1c(CN2Cc3ccccc3C2)c(F)cc(C=CC2CCN(C(=O)OC(C)(C)C)CC2)c1=O [compound 105]
4. COc1cc(CN2Cc3ccccc3C2)ccc1C#CC1(O)CCN(S(C)(=O)=O)CC1
5. CS(=O)(=O)N1CCC(COc2ccc(CN3Cc4ccccc4C3)nc2)CC1
6. CCc1cc(CN2Cc3ccccc3C2)ccc1OCC1CCN(S(C)(=O)=O)CC1

Response:
["> 7.00", "> 7.00", "> 7.00", "6.52 to 7.00", "< 6.52", "> 7.00"]

* * *

What pIC50 was measured for each of the following?
# System: CYP11A1 (Homo sapiens, UniProt P05108)
# Construct: host or cells: NCI-H295R
# Protocol summary: NCI-H295R cellular pregnenolone biosynthesis inhibition assay (ELISA method)
# Format: cell-based
# Measurement context: NCI-H295R cells, 3 days incubation, pregnenolone in cell supernatant by ELISA; read-out: IC50
pIC50: −log10 of the molar value.

Cn1cc(OCC2CCN(S(C)(=O)=O)CC2)c(=O)cc1CN1Cc2ccccc2C1 [compound 1]    < 6.52
Cn1c(CN2Cc3ccccc3C2)c(F)cc(CCN2CCN(S(C)(=O)=O)CC2)c1=O [compound 118]    6.52 to 7.00
CC(C)(C)OC(=O)N1CCC(COc2cc(F)c(CN3Cc4ccccc4C3)cc2Br)CC1 [compound 46]    > 7.00
COc1nc(CN2Cc3ccccc3C2)c(F)cc1CCC1CCN(S(C)(=O)=O)CC1 [compound 89]    6.52 to 7.00
Cn1c(CN2Cc3ccccc3C2)c(F)cc(C(O)CC2CCN(C(=O)OC(C)(C)C)CC2)c1=O (centres unmarked) [compound 122]    > 7.00

Please report pIC50 for every entry that follows.
1. COc1nc(CN2Cc3ccccc3C2)ccc1CCC1CCN(S(C)(=O)=O)CC1 [compound 65]
2. Cn1c(CN2Cc3ccccc3C2)c(F)cc(C(F)=CC2CCN(C(=O)OC(C)(C)C)CC2)c1=O [compound 128]
3. C=C(C)c1cc(CN2Cc3ccccc3C2)c(F)cc1OCC1CCN(S(C)(=O)=O)CC1 [compound 28]

Response:
1: 6.52 to 7.00; 2: 6.52 to 7.00; 3: > 7.00

* * *

What IC50 was measured for each of the following?
# System: CYP11A1 (Homo sapiens, UniProt P05108)
# Construct: host or cells: NCI-H295R
# Protocol summary: NCI-H295R cellular pregnenolone biosynthesis inhibition assay (ELISA method)
# Assay type: cell-based
# Measurement context: NCI-H295R cells, 3 days incubation, pregnenolone in cell supernatant by ELISA; read-out: IC50

The following compounds have reported results that may help.
Cn1c(CN2Cc3ccccc3C2)c(F)cc(-c2ccc3c(n2)CCN(S(C)(=O)=O)C3)c1=O    > 300 nM
COc1cc(CN2Cc3cccc(F)c3C2)c(F)cc1CCC1CCN(S(C)(=O)=O)CC1    < 100 nM
Cn1c(CN2Cc3ccccc3C2)c(F)cc(C(F)CC2CCN(S(C)(=O)=O)CC2)c1=O (centres unmarked)    < 100 nM
CS(=O)(=O)N1CCC(COc2ccc(CN3Cc4ccccc4C3)cc2)CC1    < 100 nM
COc1cc(CN2Cc3ccccc3C2)ccc1C=CC1CCN(C(=O)OC(C)(C)C)CC1    < 100 nM

Please report IC50 for every entry that follows.
1. CC(C)c1cc(CN2Cc3ccccc3C2)c(F)cc1OCC1CCN(S(C)(=O)=O)CC1
2. Fc1cc(OCC2CCNCC2)c(Br)cc1CN1Cc2ccccc2C1

Response:
1. > 300 nM
2. > 300 nM

* * *

# Protocol summary: PK study, intravenous and oral administration, plasma LC-MS/MS
# Assay type: in vivo
# Measurement context: both sexes, 5 mg/kg, oral administration of 5 mpk, species not given (ICR mice or SD Rat)
What AUC was measured for each of the following?

COc1cc(CN2Cc3ccccc3C2)ccc1CCC1CCN(S(C)(=O)=O)CC1 [compound 53]    > 1700 ng·h/mL
Cn1c(CN2Cc3ccccc3C2)c(F)cc(CCC2CCN(S(C)(=O)=O)CC2)c1=O [compound 72]    > 1700 ng·h/mL
Cn1c(CN2Cc3ccccc3C2)c(F)cc(C=CC2CCN(S(C)(=O)=O)CC2)c1=O [compound 113]    > 1700 ng·h/mL

Please report AUC for every entry that follows.
1. CS(=O)(=O)N1CCC(COc2coc(CN3Cc4ccccc4C3)cc2=O)CC1 [ODM-208, reference compound]
2. Cn1c(CN2Cc3ccccc3C2)c(F)cc(C=CC2CCN(C(=O)CC#N)CC2)c1=O [compound 112]

Response:
1. 1310 ng·h/mL
2. > 1700 ng·h/mL
